experiment: in vitro; conditions: human, plasma
readout name: remaining at 0.5 h, 2 µM (%)
Write the answer as a number in %, unit excluded.

> print(dat)
                                   molecule  scale.unit  quantitative.readout
1  CC(C)[N+](C)(CCOC(=O)C1c2ccccc2Oc2ccccc21)C(C)C.[Br-] [PROPANTHELINE BROMIDE]           %                  19.1

// below: remaining at 0.5 h, 2 µM requested for another molecule
Exercise: I have this molecule here, CCC(CC)O[C@@H]1C=C(C(=O)O)C[C@H](NCc2ccc(Sc3ccccc3)cc2)[C@H]1NC(C)=O , and I need its recorded remaining at 0.5 h, 2 µM.
Key: 100

###

test: in vitro; settings: human, plasma
readout name: half-life at 2 µM (min)
Write the answer as a number in min, unit excluded.

Exercise: I have this molecule here, CC(C)[N+](C)(CCOC(=O)C1c2ccccc2Oc2ccccc21)C(C)C.[Br-] [PROPANTHELINE BROMIDE] , and I need its recorded half-life at 2 µM.
Key: 10.8

###

test system: Influenza A virus; assay: microbe, parasite or virus in culture; conditions: MDCK, 48 h
Recorded measurements of EC50, one per entry
Write the answer as a number in µM, unit excluded.

// worked examples, EC50 included
> print(dat)
                                   molecule        test.target  scale.unit  quantitative.readout
1  CCC(CC)O[C@@H]1C=C(C(=O)O)C[C@H](NCc2ccc(Sc3cccs3)cc2)[C@H]1NC(C)=O  Influenza A virus          µM                    79
2  CCC(CC)O[C@@H]1C=C(C(=O)O)C[C@H](NCc2ccc(Sc3ccccc3)cc2)[C@H]1NC(C)=O  Influenza A virus          µM                    71

Exercise: I have this molecule here, CCC(CC)O[C@@H]1C=C(C(=O)O)C[C@H](N)[C@H]1NC(C)=O [OSELTAMIVIR CARBOXYLATE] , and I need its recorded EC50.
Key: 1.2

Exercise: I have this molecule here, CC(=O)N[C@H]1[C@H]([C@H](O)[C@H](O)CO)OC(C(=O)O)=C[C@@H]1NC(=N)N [ZANAMIVIR] , and I need its recorded EC50.
Key: 0.3

###

assay: in vitro; details: human, liver microsomes
readout name: half-life at 2 uL (min)
Write the answer as a number in min, unit excluded.

Exercise: I have this compound here, O=C(O)Cc1ccccc1Nc1c(Cl)cccc1Cl , and I need its recorded half-life at 2 uL.
Key: 14.2

###

Recorded measurements of AUC(0-t), one per entry
assay: in vivo; conditions: Sprague-Dawley, rat, po, 20 mg/kg
Write the answer as a number in ng·h/mL, unit excluded.

> print(dat)
                  compound.structure.string  quantitative.readout
1  CCOC(=O)C1=C[C@@H](OC(CC)CC)[C@H](NC(C)=O)[C@@H](NCc2ccc(Sc3ccccc3)cc2)C1                  1040

// below: AUC(0-t) requested for another compound
Exercise: I have this compound here, CCC(CC)O[C@@H]1C=C(C(=O)O)C[C@H](NCc2ccc(Sc3ccccc3)cc2)[C@H]1NC(C)=O , and I need its recorded AUC(0-t).
Key: 1500
